assay: Pharmacokinetics assay in rats; format: in vivo, male SD rats; details: rat, plasma; intravenous, 2 mg/kg, male SD rats
experimentalReadout: AUC(0-inf)
The answer consists of two parts: a number and, after it, its unit.

Prompt: GET /values?readout=AUC(0-inf)&item= O=C1CCc2cc(OCCCN3CCC(c4noc5cc(F)ccc45)CC3)cc3c2N1CC3
Response: 3380 ng·h/mL

* * *

Assay: Pharmacokinetics assay in rats
Type: in vivo, male SD rats
Conditions: rat, plasma; intravenous, 2 mg/kg, male SD rats
Procedure: Six male SD rats (7 weeks of age) were randomly divided into two groups with three rats per group. Animals were fasted overnight and had free access to water before dosing. For the intravenous group, male SD rats were administered NH300094 by single intravenous bolus administration at a dose of 2 mg/kg. […] The pharmacokinetic parameters were calculated using WinNonlin software (Version 6.3) according to non-compartmental model.
experimentalReadout: AUC(0-t) (ng·h/mL)
One number for each entry, in ng·h/mL.

Prompt: GET /values?readout=AUC(0-t)&item= O=C1CCc2cc(OCCCN3CCC(c4noc5cc(F)ccc45)CC3)cc3c2N1CC3
Response: 3370
